Would you kindly list logP for each of these compounds?
// no unit string in output, number only

## Task If you can, please state the reported logP value of CC(O)COc1ncc(-c2ccncc2)cc1C#N (centres undefined) .
## Result 1.65

## Task Also, CC(=O)OCCNc1ccc(-c2ccncc2)c(C)n1 please.
## Result 2.59

## Task Also, COCCCNc1ncc(-c2ccncc2)cc1C#N please.
## Result 2.03

## Task Also, N#Cc1cc(-c2ccncc2)cnc1NCCCCO please.
## Result 1.93

## Task Also, COc1nc(C)c(-c2ccncc2)cc1C#N please.
## Result 2.41

## Task Also, CCC(=O)OCCNc1ccc(-c2ccncc2)cn1 please.
## Result 2.47

## Task Also, CC(=O)OCCNc1ccc(-c2ccncc2)cn1 please.
## Result 2

## Task Also, CCC(CO)Nc1ncc(-c2ccncc2)cc1C#N (centres undefined) please.
## Result 1.04

## Task Also, Cc1nc(N2CCNCC2)c(C#N)cc1-c1ccccc1 please.
## Result 3.15

## Task Also, O=C(OCCCNc1ccc(-c2ccncc2)cn1)c1ccccc1 please.
## Result 4.06

## Task Also, CC(=O)OCCCOc1ccc(-c2ccncc2)cn1 please.
## Result 2.48

## Task Also, Cc1nc(NCCN)c(C#N)cc1-c1ccncc1 please.
## Result 1.91

## Task Also, CC(=O)OCCOc1ccc(-c2ccncc2)cn1 please.
## Result 1.92

## Task Also, CCOc1ncc(-c2ccncc2)cc1C#N please.
## Result 2.59
